system: human Sirt2 (Homo sapiens, UniProt Q8IXJ6)
Sequence (Q8IXJ6 25-389): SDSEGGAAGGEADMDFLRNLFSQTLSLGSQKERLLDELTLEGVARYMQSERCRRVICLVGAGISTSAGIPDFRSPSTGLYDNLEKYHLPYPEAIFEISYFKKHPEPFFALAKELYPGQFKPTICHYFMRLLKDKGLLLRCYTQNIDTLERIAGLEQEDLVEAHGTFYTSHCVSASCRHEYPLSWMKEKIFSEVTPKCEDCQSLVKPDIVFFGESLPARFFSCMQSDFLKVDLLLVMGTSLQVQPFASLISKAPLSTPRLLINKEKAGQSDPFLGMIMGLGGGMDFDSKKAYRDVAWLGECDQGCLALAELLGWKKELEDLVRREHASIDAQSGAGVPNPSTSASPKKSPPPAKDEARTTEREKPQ
Listed compounds paired with reported pIC50
Just the number, please; pIC50 means minus log10 of the concentration in mol/L.

[
  {
    "mol.smiles": "O=C(CSc1ncccn1)Nc1ncc(Cc2cccc3ccccc23)s1",
    "system": "human Sirt2 (Homo sapiens, UniProt Q8IXJ6)",
    "result.number": 5.64
  }
]

Turning to the following compound.
Task item: // fetch pIC50 given entry `O=C(CSc1ncccn1)Nc1ncc(Cc2ccccc2)s1`
Reply: 4.77
